test system: MILI (PIWIL2) piRISC loaded with L1MC piRNA (26 nt); experiment: pre-steady-state target cleavage rate (min^-1); guide: L1MC piRNA 5'p-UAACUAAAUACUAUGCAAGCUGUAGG; MIWI and MILI are mouse PIWI proteins and EfPiwi is from a freshwater sponge; tags in brackets are library labels; higher = faster piRNA-guided slicing of the target; settings: auxiliary factor: none (no GTSF1);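 further: 1 nM active piRISC with 0.1 nM target library at 33 °C single turnover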
assayMetric: pre-steady-state target cleavage rate

[
  {
    "macromoleculeSequence": "UCCUGCUACAGGUUGCAUAGUAUUUAGAUA",
    "recordedValue": 0.00283
  },
  {
    "macromoleculeSequence": "UCCUGCUACAGCUUGCAUAGUAUUCAGUUA",
    "recordedValue": 0.00294
  },
  {
    "macromoleculeSequence": "UCCUGGAUGUCGAACCCAUAGUAUUUAGUUA",
    "recordedValue": 0.00424
  },
  {
    "macromoleculeSequence": "UCCUGGAACUCGUUGCAUAGUAUUUAGUAA",
    "recordedValue": 0.00378
  },
  {
    "macromoleculeSequence": "UCCUCCUACAGCUUGGUUAGUAUUUAGUAA",
    "recordedValue": 0.00554
  },
  {
    "macromoleculeSequence": "UCCUGGAUGUGCUUGCAAUGUAUUUAGUAA",
    "recordedValue": 0.00545
  },
  {
    "macromoleculeSequence": "UCCUGGAUCAGCUUGAUAGUAUUUAGUUA",
    "recordedValue": 0.00451
  },
  {
    "macromoleculeSequence": "UCCUGGAUGUCGAACCUUAGUAUUUAGAUA",
    "recordedValue": "< 0.0001"
  },
  {
    "macromoleculeSequence": "UCCUCCUACAGCUUGCAUAGUAUUCAGUUA",
    "recordedValue": 0.00319
  },
  {
    "macromoleculeSequence": "UCCUGGUACAGCUUCCUUAGUAUUUAGUUA",
    "recordedValue": 0.00854
  },
  {
    "macromoleculeSequence": "UCCUGGAUGUGCUAUGCAUAGUAUUUAGUUA",
    "recordedValue": 0.0069
  },
  {
    "macromoleculeSequence": "UCCUGGAUGUGCUUGCAUAGUAGUUAGUUA",
    "recordedValue": 0.0055
  },
  {
    "macromoleculeSequence": "UCCUGGAACAGCUUGCAUAGUAUUUACUUA",
    "recordedValue": 0.003
  },
  {
    "macromoleculeSequence": "UCCUGGAUCAGCUUGCAUAGAUUUUAGUUA",
    "recordedValue": 0.00395
  },
  {
    "macromoleculeSequence": "UCCUGGAUCAGCUAGGAUAGUAUUUAGUUA",
    "recordedValue": 0.00609
  },
  {
    "macromoleculeSequence": "UCCUCUUACAGCUUGCAUAGUAUUUAGUUA",
    "recordedValue": 0.00963
  },
  {
    "macromoleculeSequence": "UCCUGGAUGUCGUUGCAUCGUAUUUAGUUA",
    "recordedValue": 0.00872
  },
  {
    "macromoleculeSequence": "UCCUCCUACAGCUUGCAUAGUAUUUAGUUG [g2:g26:cont:t1G]",
    "recordedValue": 0.0087
  },
  {
    "macromoleculeSequence": "UCCUGGAUGAGCUUGCAUAGUAUUUGGUUA",
    "recordedValue": 0.00663
  },
  {
    "macromoleculeSequence": "UCCUGCUACAGCUUGCAUAGUAUUUACGUUA",
    "recordedValue": 0.00615
  },
  {
    "macromoleculeSequence": "UCCUCCUACAGCUUCCAAAGUAUUUAGUUA",
    "recordedValue": 0.0037
  },
  {
    "macromoleculeSequence": "UCCUGGAUGAGCUUGCUUAGUAUAUAGUUA",
    "recordedValue": 0.00937
  },
  {
    "macromoleculeSequence": "UCCUGGAUGUCCUUGCAUAGUGAUUUAGUUA",
    "recordedValue": 0.00503
  },
  {
    "macromoleculeSequence": "UCCUGGAACAGCUUGGUUAGUAUUUAGUUA",
    "recordedValue": 0.0126
  },
  {
    "macromoleculeSequence": "UCCUGGAUGUGCUUCCAUAGUAUUUAGAUA",
    "recordedValue": "< 0.0001"
  },
  {
    "macromoleculeSequence": "UCCUCCUUGAGCUUGCAUAGUAUUUAGUAA",
    "recordedValue": 0.00389
  },
  {
    "macromoleculeSequence": "UCCUGGUACAGCUUGCAUAGUAUAUUGUUA",
    "recordedValue": 0.00411
  },
  {
    "macromoleculeSequence": "UCCUGGAUGAGCUUGCAUAGUUAUUAGUUA",
    "recordedValue": 0.00364
  },
  {
    "macromoleculeSequence": "UCCUCCUACACCUUGCUUAGUAUUUAGUUA",
    "recordedValue": 0.00665
  },
  {
    "macromoleculeSequence": "UCCUGGAUGAGCUUGCAUAGUAUUUAGUUG [g2:g21:cont:t1G]",
    "recordedValue": 0.00606
  },
  {
    "macromoleculeSequence": "UCCUGGAACCAGCUUGCAUAGUAUUUAGUUA",
    "recordedValue": 0.00736
  },
  {
    "macromoleculeSequence": "UCCUCCUACUGGUUGCAUAGUAUUUAGUUA",
    "recordedValue": 0.00818
  },
  {
    "macromoleculeSequence": "UCCUGGAUGAGCAUGCAAAGUAUUUAGUUA",
    "recordedValue": 0.00571
  },
  {
    "macromoleculeSequence": "UCCUGGAACAGCUUGCACAGUAUUUAGUUA",
    "recordedValue": 0.0128
  },
  {
    "macromoleculeSequence": "UCCUGCUACAGCUUGCAUAGAUAUUAGAAA",
    "recordedValue": "< 0.0001"
  },
  {
    "macromoleculeSequence": "UCCUGGUACAGCUUGCAUAGUAUCUAGUUA",
    "recordedValue": 0.00431
  },
  {
    "macromoleculeSequence": "UCCUGGAUGAGCUUGCAAAGUAUAUAGUUA",
    "recordedValue": 0.00576
  },
  {
    "macromoleculeSequence": "UCCUCCUACAGCUUGCAUAGUAUUUAUGUUA",
    "recordedValue": 0.00611
  },
  {
    "macromoleculeSequence": "UCCUGGAUGUCGAACCAUAGUAUUAUGUUA",
    "recordedValue": "< 0.0001"
  },
  {
    "macromoleculeSequence": "UCCUGGUACAGGUUGCAUAGUAUUUAGUAA",
    "recordedValue": 0.00626
  },
  {
    "macromoleculeSequence": "UCCUGGAACAGCUUGCAUAGUAUUUAGUUUA",
    "recordedValue": 0.00981
  },
  {
    "macromoleculeSequence": "UCCUGGAUGUCGAAGCAUAGUAUCUUAGUUA",
    "recordedValue": 0.00455
  },
  {
    "macromoleculeSequence": "UCCUCCUACAGCUUGACAUAGUAUUUAGUUA",
    "recordedValue": 0.00554
  },
  {
    "macromoleculeSequence": "UCCUGGAUGUCCUUCAUAGUAUUUAGUUA",
    "recordedValue": 0.00296
  },
  {
    "macromoleculeSequence": "UCCUCCUACAGCAUGCAUAGUAUUAAGUUA",
    "recordedValue": 0.00348
  },
  {
    "macromoleculeSequence": "UCCUGGUACAGCAUGCAUAGUUUUUAGUUA",
    "recordedValue": 0.00749
  },
  {
    "macromoleculeSequence": "UCCUGGAUGUCGAAGCAUAGUAAUAAGUUA",
    "recordedValue": "< 0.0001"
  },
  {
    "macromoleculeSequence": "UCCUCCUACAGGUUGCAUAGUAUUUUGUUA",
    "recordedValue": 0.00378
  },
  {
    "macromoleculeSequence": "UCCUCCUACUAGCUUGCAUAGUAUUUAGUUA",
    "recordedValue": 0.00589
  },
  {
    "macromoleculeSequence": "UCCUGGUACAGCAUGCAUAGUAUUUAGUUA",
    "recordedValue": 0.0158
  },
  {
    "macromoleculeSequence": "UCCUGGAACAGGAAGCAUAGUAUUUAGUUA",
    "recordedValue": 0.00491
  },
  {
    "macromoleculeSequence": "UCCUGGAACAUGCUUGCAUAGUAUUUAGUUA",
    "recordedValue": 0.00694
  },
  {
    "macromoleculeSequence": "UCCUCCUACUCGUUGCAUAGUAUUUAGUAA",
    "recordedValue": 0.00408
  },
  {
    "macromoleculeSequence": "UCCUGGAUGUCGAACGAUAGUAUUUACAUA",
    "recordedValue": "< 0.0001"
  }
]
